Each item that follows carries a reported pIC50.
Target: Kir1.1 (S44D) (Rattus norvegicus, UniProt P35560, S44D)
Sequence (P35560 whole entry S44D): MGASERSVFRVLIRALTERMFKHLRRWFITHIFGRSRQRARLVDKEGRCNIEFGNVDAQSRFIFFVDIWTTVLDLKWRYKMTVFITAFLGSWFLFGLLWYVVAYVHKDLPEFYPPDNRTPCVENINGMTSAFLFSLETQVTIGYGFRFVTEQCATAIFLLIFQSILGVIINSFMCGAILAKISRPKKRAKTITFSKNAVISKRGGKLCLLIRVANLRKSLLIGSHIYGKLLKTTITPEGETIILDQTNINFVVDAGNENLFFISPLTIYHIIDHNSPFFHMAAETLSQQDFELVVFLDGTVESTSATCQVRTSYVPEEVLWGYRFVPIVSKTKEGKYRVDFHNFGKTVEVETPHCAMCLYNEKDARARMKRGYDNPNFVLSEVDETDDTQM
Experiment: Tl+ flux assay, tetracycline-inducible Kir1.1-S44D T-REx-HEK-293 cells
Conditions: IC50 Kir1.1, Tl+ flux, mean ± SEM (n = 3)
To interpret pIC50, take it as minus log10 of a concentration measured in moles per litre.

The following compounds have reported results that may help.
compound="N=c1n(Cc2ccc(Cl)cc2)c2ccccc2n1CC(O)COc1ccc(Cl)cc1 (centres unmarked)" reported_value=5.19
compound="Cc1ccc(OCC(O)Cn2c(=N)n(Cc3ccccc3)c3ccccc32)cc1 (centres unmarked)" reported_value=4.97
compound="COc1cccc(Cn2c(=N)n(CC(O)COc3ccc(C)cc3)c3ccccc32)c1 (centres unmarked)" reported_value=4.86
compound="N=c1n(Cc2ccccc2)c2ccccc2n1CC(O)COc1ccc(Cl)cc1Cl (centres unmarked)" reported_value=5.15

Prompt: What pIC50 value was documented for this compound, N=c1n(Cc2ccccc2)c2ccccc2n1CC(O)COc1ccc(Cc2ccccc2)cc1 (centres unmarked) ?
Completion: 5.21

Prompt: For Cc1cccc(OCC(O)Cn2c(=N)n(Cc3ccccc3)c3ccccc32)c1 (centres unmarked) , what is its reported pIC50?
Completion: 4.95

Prompt: Quick one: pIC50 for Cc1cc(C)cc(OCC(O)Cn2c(=N)n(Cc3ccccc3)c3ccccc32)c1 (centres unmarked) ?
Completion: 4.80

----------
Target: Kir1.1 (S44D) (Rattus norvegicus, UniProt P35560, S44D)
Assay: Tl+ flux assay, tetracycline-inducible Kir1.1-S44D T-REx-HEK-293 cells
Settings: IC50 Kir1.1, Tl+ flux, mean ± SEM (n = 3)
pIC50: −log10 of the molar value.
Decision: pIC50 >= 5 yields y, all other cases yield n.

# count of solved cases: 4
compound="COc1ccccc1OCC(O)Cn1c(=N)n(Cc2ccccc2)c2ccccc21 (stereo not drawn) [Compound 21]" answer_label=n
compound="N=c1n(Cc2ccccc2)c2ccccc2n1CC(O)COc1ccc(Cl)cc1 (stereo not drawn) [Compound 3]" answer_label=y
compound="N#Cc1ccc(OCC(O)Cn2c(=N)n(Cc3ccccc3)c3ccccc32)cc1 (stereo not drawn) [Compound 12]" answer_label=n
compound="N=c1n(Cc2ccccc2)c2ccccc2n1CC(O)COc1ccc(OCc2ccccc2)cc1 (stereo not drawn) [Compound 11]" answer_label=y

Prompt: Does Cn1c(=N)n(CC(O)COc2ccc(C(F)(F)F)cc2)c2ccccc21 (stereo not drawn) [Compound 26] have a reported pIC50 of at least 5?
Completion: y

----------
Target: Kir3.1/3.2 (Homo sapiens, UniProt P48051+P48549)
Sequence (P48549 whole entry): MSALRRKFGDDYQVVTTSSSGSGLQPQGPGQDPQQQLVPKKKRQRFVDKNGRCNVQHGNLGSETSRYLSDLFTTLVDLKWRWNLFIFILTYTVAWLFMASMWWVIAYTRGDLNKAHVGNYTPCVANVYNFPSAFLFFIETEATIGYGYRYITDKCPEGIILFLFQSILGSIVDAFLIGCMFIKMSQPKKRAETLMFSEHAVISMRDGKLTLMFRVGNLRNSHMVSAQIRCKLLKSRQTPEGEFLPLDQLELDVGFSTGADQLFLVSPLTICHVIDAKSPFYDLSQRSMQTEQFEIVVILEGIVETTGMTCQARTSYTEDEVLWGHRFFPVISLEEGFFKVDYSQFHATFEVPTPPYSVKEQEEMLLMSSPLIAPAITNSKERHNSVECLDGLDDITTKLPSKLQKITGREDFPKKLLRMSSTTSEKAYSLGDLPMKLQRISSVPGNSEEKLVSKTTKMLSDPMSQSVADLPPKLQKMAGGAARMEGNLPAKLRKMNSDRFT
Sequence (P48051 whole entry): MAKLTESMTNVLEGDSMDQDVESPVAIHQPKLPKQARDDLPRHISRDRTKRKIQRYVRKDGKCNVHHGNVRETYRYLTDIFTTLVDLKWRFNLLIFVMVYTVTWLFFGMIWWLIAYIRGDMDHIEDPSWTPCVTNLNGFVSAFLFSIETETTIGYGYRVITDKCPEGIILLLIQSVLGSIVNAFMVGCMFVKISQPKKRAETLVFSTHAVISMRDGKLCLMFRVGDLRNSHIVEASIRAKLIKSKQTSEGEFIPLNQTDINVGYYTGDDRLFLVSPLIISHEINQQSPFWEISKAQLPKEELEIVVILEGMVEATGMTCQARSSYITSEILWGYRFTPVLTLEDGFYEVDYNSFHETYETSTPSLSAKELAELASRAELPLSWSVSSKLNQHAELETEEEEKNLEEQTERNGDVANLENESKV
Assay: Two-electrode voltage clamp in Xenopus oocytes, Kir3.1/3.2
pIC50: −log10 of the molar value.
ENDPOINT: pIC50

Prompt: Any idea what its pIC50 is? The compound is Cc1ccc(OCC(O)Cn2c(=N)n(Cc3ccccc3)c3ccccc32)cc1 (stereo not shown) [Compound 1]
Completion: ~5.00

----------
Target: Kir1.1 (S44D) (Rattus norvegicus, UniProt P35560, S44D)
Assay: Tl+ flux assay, tetracycline-inducible Kir1.1-S44D T-REx-HEK-293 cells
Details: IC50 Kir1.1, Tl+ flux, mean ± SEM (n = 3)
# IC50 per entry
Express the result in µM but write the number alone.

compound="N=c1n(Cc2ccccc2)c2ccccc2n1CC(O)COc1cccc(Cl)c1 (stereo not shown) [Compound 18]" reported_value=11.7
compound="N=c1n(Cc2ccccc2)c2ccccc2n1CC(O)COc1ccccc1 (stereo not shown) [Compound 5]" reported_value=11.7
compound="Cc1cc(OCC(O)Cn2c(=N)n(Cc3ccccc3)c3ccccc32)ccc1Br (stereo not shown) [Compound 16]" reported_value=8.53
compound="N=c1n(Cc2ccc(Cl)cc2)c2ccccc2n1CC(O)COc1ccccc1 (stereo not shown) [Compound 22]" reported_value=14.7
compound="CC(C)c1ccc(OCC(O)Cn2c(=N)n(Cc3ccccc3)c3ccccc32)cc1 (stereo not shown) [Compound 8]" reported_value=6.77

In the following, a different compound is considered.
Prompt: Item COc1ccc(OCC(O)Cn2c(=N)n(Cc3ccccc3)c3ccccc32)cc1 (stereo not shown) [Compound 13] has what recorded IC50?
Completion: 12.7

----------
Molecular target: Kir1.1 (S44D) (Rattus norvegicus, UniProt P35560, S44D)
Experiment: Tl+ flux assay, tetracycline-inducible Kir1.1-S44D T-REx-HEK-293 cells
Settings: IC50 Kir1.1, Tl+ flux, mean ± SEM (n = 3)
ENDPOINT: pIC50
Interpret pIC50 as the negative base-10 log of the concentration measured in mol/L.

Before answering, review these 3 worked examples.
compound="N=c1n(Cc2ccccc2)c2ccccc2n1CC(O)COc1cc(F)cc(F)c1 (stereo not shown)" assayed_system="Kir1.1 (S44D) (Rattus norvegicus, UniProt P35560, S44D)" reported_value=5.12
compound="N=c1n(Cc2ccccc2)c2ccccc2n1CC(O)COc1ccccc1Cl (stereo not shown)" assayed_system="Kir1.1 (S44D) (Rattus norvegicus, UniProt P35560, S44D)" reported_value=5.07
compound="COc1cccc(OCC(O)Cn2c(=N)n(Cc3ccccc3)c3ccccc32)c1 (stereo not shown)" assayed_system="Kir1.1 (S44D) (Rattus norvegicus, UniProt P35560, S44D)" reported_value=5.00

Prompt: Query (compound): Cc1ccc(OCC(O)Cn2c(=N)n(C)c3ccccc32)cc1 (stereo not shown) ; field requested: pIC50
Completion: 4.89

----------
Biological target: Kir1.1 (S44D) (Rattus norvegicus, UniProt P35560, S44D)
Assay: Tl+ flux assay, tetracycline-inducible Kir1.1-S44D T-REx-HEK-293 cells
Conditions: IC50 Kir1.1, Tl+ flux, mean ± SEM (n = 3)
The following molecules are shown together with reported pIC50 values.
// scale note: pIC50 = -log10(conc_M); give the bare number

Consider the reported pIC50 for these molecules:
molecule="N#Cc1ccc(F)c(OCC(O)Cn2c(=N)n(Cc3ccccc3)c3ccccc32)c1 (stereo not shown)" endpoint=pIC50 reported_value=5.08
molecule="Cc1ccccc1OCC(O)Cn1c(=N)n(Cc2ccccc2)c2ccccc21 (stereo not shown)" endpoint=pIC50 reported_value=4.92

Here's the next entry for you.
Prompt: # value lookup — system Kir1.1 (S44D) (Rattus norvegicus, UniProt P35560, S44D), readout pIC50, item N#Cc1cc(F)cc(OCC(O)Cn2c(=N)n(Cc3ccccc3)c3ccccc32)c1 (stereo not shown)
Completion: 4.84
